# method: qHTS assay to identify small molecule agonists of the estrogen receptor alpha (ER-alpha) signaling pathway in the presence of an antagonist - cell viability counter screen (AID 1259386);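 also: cells exposed to compounds for 22 h at 37 °C before the viability read; nearly all actives have a fitted effect of over 30% in size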
# experimental.parameters: VM7Luc4E2 viability, CellTiter-Fluor fluorescence, 22 h; series mostly up to 92.4 µM
Records with an inconclusive call do not appear. Activity calls are given as the source filed them. Calls follow the shape of the dose curve; as a rule, active = well fitted cell-killing curve with a large enough effect in the repeat runs; inconclusive = weak or mixed curves, or effect the other way; inactive = no such curve, though single readings can be large or run the other way.
parameter: outcome

Solved cases below.
| molecule | result |
| --- | --- |
| CC12CC1(C)C(=O)N(c1cc(Cl)cc(Cl)c1)C2=O (configuration not stated) | inactive |
| COP(=S)(OC)SCN1C(=O)c2ccccc2C1=O | inactive |
| Cc1cc(O)ccc1Cl | inactive |
| C=CC(=O)OCCCCCC(C)C | inactive |
| C=CCN=C=S | inactive |
| CNC(=O)O/N=C/C(C)(C)SC | inactive |
| C[C@H]1C(=O)O[C@@H]2CCN3CC=C(COC(=O)[C@](C)(O)[C@]1(C)O)[C@H]23 | inactive |
| CN(C)C(=O)Cl | inactive |

The molecule COc1nc(NC(C)C)nc(NC(C)C)n1 showed outcome equal to inactive

The molecule CNC(=O)Oc1cccc2ccccc12 showed outcome equal to inactive

The molecule N#Cc1ccccn1 showed outcome equal to inactive

The molecule FC(F)(F)c1ccc(Cl)cc1 showed outcome equal to inactive

The molecule O=C(O)Cc1ccccc1 showed outcome equal to inactive

----------
# method: qHTS assay for small molecules that induce genotoxicity in human embryonic kidney cells expressing luciferase-tagged ATAD5 (AID 651632); also: nearly all actives have a fitted effect of over 15% in size
# experimental.parameters: HEK293T ATAD5-luciferase induction, 16 h; series mostly up to 83.3 µM
Results filed as inconclusive are left out. Active and inactive are the calls of the source. Calls come from the whole dose curve; as a rule, active = well fitted activation curve with a large enough effect in the repeat runs; inconclusive = weak or mixed curves; inactive = no such curve, though single readings can be large or run the other way.
Can you answer with just one of these options? active, inactive

| molecule | label |
| --- | --- |
| CNC(=O)Oc1cccc2ccccc12 | inactive |

Query: recorded result category for Nc1cccc(Cl)c1 in this test
inactive

Query: recorded result category for CCCOC(=O)c1ccccc1C(=O)OCCC in this test
inactive

Query: recorded result category for Nc1cc(Cl)cc(Cl)c1 in this test
inactive

Query: recorded result category for Cc1ccc(N)cc1 in this test
inactive

Query: recorded result category for Nc1ccc(N)cc1 in this test
active

Query: recorded result category for C=CC(=O)OCCCCCC(C)C in this test
inactive

Query: recorded result category for O=[N+]([O-])c1ccc(Cl)c(Cl)c1 in this test
inactive

----------
# method: qHTS assay to identify small molecule antagonists of the estrogen receptor alpha (ER-alpha) signaling pathway using the BG1 cell line in the presence of 0.1 nM 17-beta-estradiol - cell viability counter screen (AID 1259241); also: nearly all actives have a fitted effect of over 40% in size
# experimental.parameters: VM7Luc4E2 (BG1) viability, CellTiter-Fluor protease, 22 h, 0.1 nM estradiol agonist added; series mostly up to 92.4 µM
Results filed as inconclusive are left out. The source made the active and inactive calls. Calls follow the shape of the dose curve; as a rule, active = well fitted cell-killing curve with a large enough effect in the repeat runs; inconclusive = weak or mixed curves, or effect the other way; inactive = flat fitted curve, though single readings scatter.
parameter: outcome

Solved cases below.
| molecule | outcome |
| --- | --- |
| C[C@]12CC[C@H](O)CC1=CC[C@@H]1[C@@H]2CC[C@]2(C)C(=O)CC[C@@H]12 | inactive |
| Oc1ccc(Cl)cc1 | inactive |
| OCCCCO | inactive |
| Cc1ccccc1N | inactive |
| CNC(=O)O/N=C/C(C)(C)SC | inactive |

The molecule COc1cc(-c2ccc(N)c(OC)c2)ccc1N showed outcome equal to inactive

The molecule CN(C)C(=O)Cl showed outcome equal to inactive

The molecule CN(C)NC(=O)CCC(=O)O showed outcome equal to inactive

The molecule COc1nc(NC(C)C)nc(NC(C)C)n1 showed outcome equal to inactive

The molecule COC(=O)Nc1cccc(OC(=O)Nc2cccc(C)c2)c1 showed outcome equal to inactive
